Experiment Notes: Half life in Sprague-Dawley rat at 3 mg/kg measured up to 24 hrs by LC-MS/MS analysis
Format: ADME, organism-based
Applied Conditions: in vivo
half-life listing for selected compounds.
Please reply with the bare figure in h and do not write the unit itself.

Record C[C@H]1CNC(=O)c2cnn3ccc(nc23)N[C@H](C)c2cc(F)ccc2O1 , field half-life: 2.8

Now look at this one.
Record C[C@@H]1CCc2ncc(F)cc2[C@H]2CCCN2c2ccn3ncc(c3n2)C(=O)N1 , field half-life: 1.2

###

Tested Target: Cytochrome P450 2C9 (Homo sapiens, UniProt P11712)
Sequence (P11712 whole entry): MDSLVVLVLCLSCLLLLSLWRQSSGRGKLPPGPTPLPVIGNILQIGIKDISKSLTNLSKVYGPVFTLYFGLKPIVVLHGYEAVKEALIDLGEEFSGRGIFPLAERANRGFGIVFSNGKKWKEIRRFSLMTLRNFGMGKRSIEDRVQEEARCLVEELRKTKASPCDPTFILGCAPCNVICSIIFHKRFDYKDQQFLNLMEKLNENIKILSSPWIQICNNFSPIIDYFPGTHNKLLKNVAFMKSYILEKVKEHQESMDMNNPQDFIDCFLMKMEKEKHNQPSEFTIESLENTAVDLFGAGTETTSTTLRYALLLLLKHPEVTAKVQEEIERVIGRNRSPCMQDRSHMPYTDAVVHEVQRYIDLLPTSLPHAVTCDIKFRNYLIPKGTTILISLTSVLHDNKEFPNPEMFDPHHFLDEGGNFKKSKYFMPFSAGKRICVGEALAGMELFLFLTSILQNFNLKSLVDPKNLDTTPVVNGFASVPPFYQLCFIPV
Metric Name: pIC50
Note: pIC50 values are expressed as the negative base-10 logarithm of concentration in M.

Record C[C@H]1CNC(=O)c2cnn3ccc(nc23)N[C@H](C)c2cc(F)ccc2O1 , field pIC50: 5.19

Now look at this one.
Record O=C1NC2(CC2)COc2ncc(F)cc2[C@H]2COCCN2c2ccn3ncc1c3n2 , field pIC50: 4.74

###

Tested Target: NT-3 growth factor receptor (Homo sapiens, UniProt Q16288)
Sequence (Q16288 whole entry): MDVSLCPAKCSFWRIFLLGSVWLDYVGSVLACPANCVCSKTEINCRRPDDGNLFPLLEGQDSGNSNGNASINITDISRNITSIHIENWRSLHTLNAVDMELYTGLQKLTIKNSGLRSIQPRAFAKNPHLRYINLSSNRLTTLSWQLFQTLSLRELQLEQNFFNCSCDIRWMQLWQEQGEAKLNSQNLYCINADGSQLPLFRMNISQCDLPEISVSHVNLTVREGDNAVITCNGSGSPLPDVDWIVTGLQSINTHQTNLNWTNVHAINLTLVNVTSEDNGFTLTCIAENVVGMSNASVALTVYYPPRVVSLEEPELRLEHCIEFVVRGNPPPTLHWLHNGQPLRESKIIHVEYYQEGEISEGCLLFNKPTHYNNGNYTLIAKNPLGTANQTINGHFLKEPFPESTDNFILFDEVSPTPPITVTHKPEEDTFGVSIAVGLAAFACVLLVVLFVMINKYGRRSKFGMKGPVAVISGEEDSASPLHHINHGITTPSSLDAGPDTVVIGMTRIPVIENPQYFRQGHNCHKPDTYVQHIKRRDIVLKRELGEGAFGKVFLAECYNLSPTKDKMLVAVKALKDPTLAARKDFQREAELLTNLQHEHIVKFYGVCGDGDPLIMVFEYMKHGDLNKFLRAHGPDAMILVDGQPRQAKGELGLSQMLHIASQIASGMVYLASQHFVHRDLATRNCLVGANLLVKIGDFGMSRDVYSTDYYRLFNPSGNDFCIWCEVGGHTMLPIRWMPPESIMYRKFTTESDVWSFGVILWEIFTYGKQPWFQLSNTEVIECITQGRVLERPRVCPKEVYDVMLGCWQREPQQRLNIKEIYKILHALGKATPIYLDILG
Metric Name: IC50 (nM)
Please reply with the bare figure in nM and do not write the unit itself.

Noted IC50 for O=C1NC2(CC2)COc2ncc(F)cc2[C@H]2COCCN2c2ccn3ncc1c3n2 , tested on NT-3 growth factor receptor (Homo sapiens, UniProt Q16288): 0.2

###

Experiment Notes: Oral bioavailability in Sprague-Dawley rat at 10 mg/kg measured up to 24 hrs by LC/MS/MS analysis
Assay type: ADME, organism-based
Applied Conditions: in vivo
Metric Name: bioavailability (%)
Please reply with the bare figure in % and do not write the unit itself.

Record C[C@@H]1CCc2ncc(F)cc2[C@H]2CCCN2c2ccn3ncc(c3n2)C(=O)N1 [SELITRECTINIB] , field bioavailability: 74

Now look at this one.
Record C[C@H]1CNC(=O)c2cnn3ccc(nc23)N[C@H](C)c2cc(F)ccc2O1 [REPOTRECTINIB] , field bioavailability: 119

###

Experiment Notes: Kinetic solubility of the compound
Assay type: physicochemical
Applied Conditions: read-out: Kinetic_solubility
Metric Name: solubility kinetic (µM)
Please reply with the bare figure in µM and do not write the unit itself.

Record C[C@H]1CNC(=O)c2cnn3ccc(nc23)N[C@H](C)c2cc(F)ccc2O1 , field solubility kinetic: 65.8

***
Record O=C1NC2(CC2)COc2ncc(F)cc2[C@H]2COCCN2c2ccn3ncc1c3n2 , field solubility kinetic: 193

###

Experiment Notes: Protein binding in rat plasma assessed as unbound fraction by LC-MS/MS based equilibrium dialysis method
Assay type: ADME, cell-free
Metric Name: fraction unbound
Quick one: just the number, no unit, thanks!

Recorded results for 4 compounds are shown here.
Record C[C@@H]1CCc2ncc(F)cc2[C@H]2CCCN2c2ccn3ncc(c3n2)C(=O)N1 , field fraction unbound: 0.03

Record O=C1NC2(CC2)COc2ncc(F)cc2[C@H]2CCCCN2c2ccn3ncc1c3n2 , field fraction unbound: 0.02

Record O=C1NC2(CC2)COc2ncc(F)cc2[C@H]2CNCCN2c2ccn3ncc1c3n2 , field fraction unbound: 0.3

Record O=C1NC2(CC2)COc2ncc(F)cc2[C@H]2COCCN2c2ccn3ncc1c3n2 , field fraction unbound: 0.12

Now look at this one.
Record C[C@H]1CNC(=O)c2cnn3ccc(nc23)N[C@H](C)c2cc(F)ccc2O1 , field fraction unbound: 0.06

All values here come from ChEMBL document CHEMBL5034019.
